Data origin, for the record: patent EP4748833A1

I'd be grateful if you could share measured Emax for these entries.
target: AMPKα1β1γ1 (Homo sapiens, UniProt Q13131+Q9Y478); construct: purchased CARNA 02-113; assay: In vitro assay for AMPK (α1β1γ1) enzyme agonist activity (TR-FRET); type: biochemical; details: 1 h, read-out: Top value
Sequence (Q13131 whole entry): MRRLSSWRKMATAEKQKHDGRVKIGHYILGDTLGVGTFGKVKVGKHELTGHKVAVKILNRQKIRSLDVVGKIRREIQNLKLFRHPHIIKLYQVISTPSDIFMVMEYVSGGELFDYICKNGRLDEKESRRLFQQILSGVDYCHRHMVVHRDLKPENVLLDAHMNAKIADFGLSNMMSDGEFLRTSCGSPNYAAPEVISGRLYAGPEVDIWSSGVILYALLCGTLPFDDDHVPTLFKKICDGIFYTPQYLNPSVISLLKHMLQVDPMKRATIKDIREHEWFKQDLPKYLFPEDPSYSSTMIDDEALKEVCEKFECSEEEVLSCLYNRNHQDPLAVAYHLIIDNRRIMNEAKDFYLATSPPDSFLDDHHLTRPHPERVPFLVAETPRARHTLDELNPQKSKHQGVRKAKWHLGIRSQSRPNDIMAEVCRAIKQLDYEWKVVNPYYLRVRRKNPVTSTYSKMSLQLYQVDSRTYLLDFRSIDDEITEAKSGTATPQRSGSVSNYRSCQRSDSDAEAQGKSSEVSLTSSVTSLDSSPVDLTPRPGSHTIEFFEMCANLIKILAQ
Sequence (Q9Y478 whole entry): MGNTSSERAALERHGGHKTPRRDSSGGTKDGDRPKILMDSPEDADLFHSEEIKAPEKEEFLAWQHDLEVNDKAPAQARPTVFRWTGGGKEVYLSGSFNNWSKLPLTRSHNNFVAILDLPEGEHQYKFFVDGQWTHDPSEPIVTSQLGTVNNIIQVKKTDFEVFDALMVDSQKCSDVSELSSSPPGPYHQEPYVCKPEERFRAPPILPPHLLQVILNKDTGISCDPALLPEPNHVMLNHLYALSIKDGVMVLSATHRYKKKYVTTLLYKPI
Sequence (P54619 whole entry partner): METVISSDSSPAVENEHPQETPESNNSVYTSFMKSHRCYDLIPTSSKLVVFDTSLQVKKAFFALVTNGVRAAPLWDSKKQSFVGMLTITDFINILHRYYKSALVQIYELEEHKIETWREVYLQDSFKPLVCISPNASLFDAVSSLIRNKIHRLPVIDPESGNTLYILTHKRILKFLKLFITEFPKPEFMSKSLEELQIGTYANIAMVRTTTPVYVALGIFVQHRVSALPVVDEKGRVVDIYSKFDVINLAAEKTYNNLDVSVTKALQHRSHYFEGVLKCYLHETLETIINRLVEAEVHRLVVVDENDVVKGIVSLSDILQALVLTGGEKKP

// query Emax value for entry O=C(Nc1ncco1)c1c[nH]c2cc(Cl)c(-c3ccc(-c4ccccc4)cc3)cc12 [Compound 24]
> 100%

// query Emax value for entry O=C(O)C(=O)c1c[nH]c2cc(Cl)c(-c3ccc(-c4ccccc4O)cc3)cc12 [Compound 4]
50 to 70%

// query Emax value for entry COc1ccc(-c2cc3c(C(=O)C(=O)O)c[nH]c3cc2Cl)cc1 [Compound 7]
70 to 100%

// query Emax value for entry O=C(O)C(=O)c1c[nH]c2cc(Cl)c(-c3ccc(C4(O)CCC4)cc3)cc12 [Compound 2]
70 to 100%

// query Emax value for entry Cn1ccc2cc(-c3cc4c(C(=O)NCc5ncco5)c(O)[nH]c4cc3Cl)ccc21 [Compound 32]
70 to 100%

// query Emax value for entry CN(Cc1cccs1)C(=O)c1c[nH]c2cc(Cl)c(-c3ccc(C4(CO)CC4)cc3)cc12 [Compound 25]
< 50%

// query Emax value for entry O=C(Nc1ncc[nH]1)c1c[nH]c2cc(Cl)c(-c3ccc(-c4ccccc4)cc3)cc12 [Compound 13]
> 100%

// query Emax value for entry O=C(O)Cc1c[nH]c2cc(Cl)c(-c3ccc(C4(O)CCC4)cc3)nc12 [Compound 1]
50 to 70%
